Tested on: mock-infected MT4 cells
Assay: Toxicity on mock-infected cells (MTT)
Conditions: pCC50 with mock transfected cells
Description: HIV- or mock-infected MT4 cells were incubated for five days in the presence of various concentrations of the inhibitor. […] Cell viability is measured by measuring the concentration of MTT, a yellow, water soluble tetrazolium dye that is converted to a purple, water insoluble formazan in the mitochondria of living cells only. Upon solubilization of the resulting formazan crystals with isopropanol, the absorbance of the solution is monitored at 540 nm. […]
metricName: Tox (pCC50)

Examples with their reported Tox (pCC50) follow.
| compound | Tox (pCC50) |
| --- | --- |
| CC(=O)Nc1nc(-c2ccc(S(=O)(=O)N(CC(C)C)CC(O)C(Cc3ccccc3)NC(=O)OC3COC4OCCC34)cc2)cs1 (stereo not drawn) | 4.11 |
| CC(C)CN(C[C@@H](O)[C@H](Cc1ccccc1)NC(=O)O[C@H]1CO[C@H]2OCC[C@H]21)S(=O)(=O)c1ccc(-c2noc(-c3ccco3)n2)cc1 | <4.49 |
| CC(C)CN(CC(O)C(Cc1ccccc1)NC(=O)OC1COC2OCCC12)S(=O)(=O)c1ccc(-c2coc(-c3ccc(Br)cc3)n2)cc1 (stereo not drawn) | <4.49 |
| Cc1cccc(C)c1OCC(=O)N[C@@H](Cc1ccccc1)[C@H](O)CN(CC(C)C)S(=O)(=O)c1ccc(-c2cc[nH]n2)cc1 | 4.2 |
| CC(=O)Nc1nc(-c2ccc(S(=O)(=O)N(CC(C)C)CC(O)C(Cc3ccccc3)NC(=O)OC3COC4OCCC34)cc2)c[nH]1 (stereo not drawn) | <4.0 |

Now examine the next entry.
Record lookup: for mock-infected MT4 cells, what Tox (pCC50) belongs to CC(C)CN(CC(O)C(Cc1ccccc1)NC(=O)OC1COC2OCCC12)S(=O)(=O)c1ccc(-c2c[nH]c(NC(=O)OC3COC4OCCC34)n2)cc1 (stereo not drawn) ?
<4.0

Cited source for all entries: patent US7763641B2
